Where do the numbers come from? From the METLIN SMRT retention time set (Domingo-Almenara et al. 2019).

experiment: gradient 5% acetonitrile 3 min, to 50% in 2 min, to 85% in 15 min, held 3 min, 100 µL/min; settings: column: Zorbax Extend-C18 2.1 x 50 mm; eluents: water / acetonitrile, 0.1% formic acid
Record Fulfilled whenever RP-LC retention time is at 800 s or higher; record Not fulfilled when lower.

Answered cases to consult:
In [3]: df
Out[3]:
                                   compound            cat
0  CCN1C(=O)C2(CCN(S(=O)(=O)CC)CC2)c2ccccc21  Not fulfilled
1  COc1ccccc1N1CCN(CCCCN2C(=O)c3ccccc3C2=O)CC1  Not fulfilled
2   Cc1ccccc1Nc1c(-c2c(F)cccc2Cl)nc2ccccn12  Not fulfilled
3  CC1CCN(c2nc(C(=O)N(C)c3ccccc3)nc3c2cnn3C)CC1      Fulfilled
4  CCCNC(=O)C1CCCN(c2ccc(SCC(=O)Nc3cccc(SC)c3)nn2)C1 (stereo not given)  Not fulfilled
5  COCCNC(=O)CC1CCN(C(=O)c2[nH]c(C)cc2C)CC1  Not fulfilled
6  Cc1noc([C@@H]2CN(C(=O)c3occc3C)C[C@H]2CO)n1  Not fulfilled
7    O=C(Cc1ccsc1)Nc1ccc2ncnc(N3CCCCC3)c2c1  Not fulfilled
8  CCCN1C(=O)c2[nH]nc(-c3cccc(OC)c3)c2C1c1cccnc1 (stereo not given)  Not fulfilled
9  Cc1cc(-c2ccc(S(=O)(=O)N3CCN(c4ccccn4)CC3)c(C)c2)on1  Not fulfilled

Is RP-LC retention time for CCCN1C(=O)COc2cc(-c3noc(C(=O)NC4CCCCCC4)n3)ccc21 at or above 800 s?
Fulfilled

Is RP-LC retention time for CCc1nc(-c2cccc(NC(=O)c3cncc(Br)c3)c2)no1 at or above 800 s?
Fulfilled

Is RP-LC retention time for O=S(=O)(NCc1cccs1)c1cc(-c2nnc(-c3ccccc3)o2)ccc1F at or above 800 s?
Fulfilled

Is RP-LC retention time for Cc1cc(-c2cc(S(=O)(=O)NCCc3ccc(Cl)cc3)c(C)s2)n[nH]1 at or above 800 s?
Fulfilled

Is RP-LC retention time for O=C(Cn1nc(N2CCSCC2)c2ccccc2c1=O)Nc1ccc(Br)cc1F at or above 800 s?
Fulfilled

---

assay: gradient 5% acetonitrile 3 min, to 50% in 2 min, to 85% in 15 min, held 3 min, 100 µL/min; settings: column: Zorbax Extend-C18 2.1 x 50 mm; eluents: water / acetonitrile, 0.1% formic acid
Readout Name: RP-LC retention time (s)
Give your result in s as a bare value.

>>> print(df.to_string())
                                   compound          readout_name  measured_number
0            NC(=O)c1cc(=O)[nH]c2ccc(F)cc12  RP-LC retention time              558
1  Cc1nn(C)cc1CN(C)C(=O)COc1ccc(NC(=O)C2CC2)cn1  RP-LC retention time              604
2  COc1ccccc1Cc1noc(C2CN(S(=O)(=O)c3ccc(F)c(Cl)c3)C2)n1  RP-LC retention time             1030

Name the recorded RP-LC retention time for O=C1CCCc2cc(S(=O)(=O)N3CCC(C(=O)NC4CCCC4)CC3)ccc2N1 .
761
